molecular target: PI3K-alpha (Homo sapiens)
Sequence (P42336 whole entry, species assumed): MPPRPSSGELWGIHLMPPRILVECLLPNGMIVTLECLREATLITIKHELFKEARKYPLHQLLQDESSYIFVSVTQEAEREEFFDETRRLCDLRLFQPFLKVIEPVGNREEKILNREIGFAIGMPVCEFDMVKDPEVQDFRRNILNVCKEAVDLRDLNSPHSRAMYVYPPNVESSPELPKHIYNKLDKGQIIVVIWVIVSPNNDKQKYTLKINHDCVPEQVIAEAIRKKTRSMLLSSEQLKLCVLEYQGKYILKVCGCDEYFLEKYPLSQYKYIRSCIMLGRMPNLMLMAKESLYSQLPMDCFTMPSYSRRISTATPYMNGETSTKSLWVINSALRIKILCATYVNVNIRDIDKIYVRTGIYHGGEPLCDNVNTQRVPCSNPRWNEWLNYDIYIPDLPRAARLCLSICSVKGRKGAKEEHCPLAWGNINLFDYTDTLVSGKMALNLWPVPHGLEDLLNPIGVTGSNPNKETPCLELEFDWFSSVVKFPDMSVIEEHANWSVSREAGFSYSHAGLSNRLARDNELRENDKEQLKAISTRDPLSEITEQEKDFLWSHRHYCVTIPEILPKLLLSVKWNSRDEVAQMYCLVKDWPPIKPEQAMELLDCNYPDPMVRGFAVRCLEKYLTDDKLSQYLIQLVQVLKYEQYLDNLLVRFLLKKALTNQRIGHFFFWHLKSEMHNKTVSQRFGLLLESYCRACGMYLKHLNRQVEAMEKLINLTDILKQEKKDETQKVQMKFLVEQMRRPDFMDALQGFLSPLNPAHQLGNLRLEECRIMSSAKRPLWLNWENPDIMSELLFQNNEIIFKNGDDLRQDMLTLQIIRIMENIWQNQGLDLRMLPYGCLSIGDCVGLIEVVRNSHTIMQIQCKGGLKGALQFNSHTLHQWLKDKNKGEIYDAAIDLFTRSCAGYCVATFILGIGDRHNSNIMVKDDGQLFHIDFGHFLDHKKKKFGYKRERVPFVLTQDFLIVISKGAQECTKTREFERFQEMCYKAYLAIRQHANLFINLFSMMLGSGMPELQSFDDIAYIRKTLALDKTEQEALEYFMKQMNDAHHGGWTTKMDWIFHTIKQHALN
Sequence (P27986 whole entry partner, species assumed): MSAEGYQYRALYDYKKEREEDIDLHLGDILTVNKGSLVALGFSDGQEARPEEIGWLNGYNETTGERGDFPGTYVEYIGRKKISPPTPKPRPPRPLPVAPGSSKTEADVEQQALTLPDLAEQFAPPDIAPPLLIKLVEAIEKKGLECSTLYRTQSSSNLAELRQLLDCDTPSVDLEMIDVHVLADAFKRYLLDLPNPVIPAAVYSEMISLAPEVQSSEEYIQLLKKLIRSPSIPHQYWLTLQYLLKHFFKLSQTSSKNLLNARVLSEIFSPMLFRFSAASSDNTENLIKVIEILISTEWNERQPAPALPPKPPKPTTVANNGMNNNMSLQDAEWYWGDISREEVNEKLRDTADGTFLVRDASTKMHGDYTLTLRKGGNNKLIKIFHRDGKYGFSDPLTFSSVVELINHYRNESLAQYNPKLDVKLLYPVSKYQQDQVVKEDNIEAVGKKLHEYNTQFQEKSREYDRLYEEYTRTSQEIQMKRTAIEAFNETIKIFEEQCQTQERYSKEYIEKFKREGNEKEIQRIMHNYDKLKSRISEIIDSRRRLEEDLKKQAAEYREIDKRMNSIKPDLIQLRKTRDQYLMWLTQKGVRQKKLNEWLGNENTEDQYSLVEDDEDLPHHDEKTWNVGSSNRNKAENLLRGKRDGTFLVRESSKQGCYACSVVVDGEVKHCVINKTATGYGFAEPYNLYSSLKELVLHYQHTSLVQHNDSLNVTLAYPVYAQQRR
pIC50: −log10 of the molar value.
Respond with y for pIC50 values of 6 and above, n for values below.

Example entries begin here.
{"CHEM_SMILES": "C[C@@H]1CN(c2cc(N3C4CCC3COC4)nc(-c3ccc(NC(=O)Nc4ccc(C(=O)N5CCN(C)CC5)cc4)cc3)n2)C[C@H](C)O1", "CLASS_LABEL": "y"}
{"CHEM_SMILES": "O=C(Nc1ccncc1)Nc1ccc(-c2nc(-c3ccccc3)cc(N3CC4CCC(C3)O4)n2)cc1", "CLASS_LABEL": "y"}
{"CHEM_SMILES": "CN1CCN(c2ccc(NC(=O)Nc3ccc(-c4nc(CS(C)(=O)=O)cc(N5CC6CCC(C5)O6)n4)cc3)cc2)CC1", "CLASS_LABEL": "y"}
{"CHEM_SMILES": "CS(=O)(=O)CCNc1cc(N2C3CCC2COC3)nc(-c2ccc(NC(=O)Nc3cccnc3)cc2)n1", "CLASS_LABEL": "n"}

Query block: Test whether the compound `O=C(Nc1ccncc1)Nc1ccc(-c2nc(N3CC4CCC(C3)O4)cc(N3CC4CCC(C3)O4)n2)cc1` records pIC50 of 6 or higher.
Result block: y

Query block: Is pIC50 for `CC(C)Nc1cc(N2C3COCC2COC3)nc(-c2ccc(NC(=O)Nc3ccc(OCCN(C)C)cc3)cc2)n1` at or above 6?
Result block: n

Query block: Dear colleague, could you confirm whether `O=C(Nc1ccncc1)Nc1ccc(-c2nc(N3CC4CCC(C3)O4)cc(C(F)(F)F)n2)cc1` has pIC50 at or above 6?
Result block: y

Query block: Dear colleague, could you confirm whether `CN1CCN(Cc2ccc(NC(=O)Nc3ccc(-c4nc(NCCS(C)(=O)=O)cc(N5C6CCC5COC6)n4)cc3)cc2)CC1` has pIC50 at or above 6?
Result block: n

Query block: Assess whether reported pIC50 for `CN(C)CCOc1ccc(NC(=O)Nc2ccc(-c3nc(N4C5CCC4COC5)cc(N4C5CCC4COC5)n3)cc2)cc1` sits at 6 or higher.
Result block: n

Query block: Hi team, for `CC(C)Nc1cc(N2C3COCC2COC3)nc(-c2ccc(NC(=O)Nc3ccc(CN4CCN(C)CC4)cc3)cc2)n1` , is the recorded pIC50 at or above 6?
Result block: n

Query block: # check: pIC50 of `CN1CCN(c2ccc(NC(=O)Nc3ccc(-c4nc(C5CCOCC5)cc(N5C6CCC5COC6)n4)cc3)cn2)CC1` is greater than or equal to 6
Result block: n

Query block: Is reported pIC50 greater than or equal to 6 here: `CN1CCN(c2ccc(NC(=O)Nc3ccc(-c4nc(N5C6CCC5COC6)cc(N5C[C@@H]6C[C@H]5CO6)n4)cc3)cc2)CC1`
Result block: n

Query block: Item `O=C(Nc1ccc(-c2nc(-c3ccccc3)cc(N3CC4CCC(C3)O4)n2)cc1)NC1CC1` with pIC50 of 6 or above?
Result block: n

Query block: API: above_or_equal(metric=pIC50, cutoff=6) for item `O=C(Nc1ccncc1)Nc1ccc(-c2cc(N3CC4CCC(C3)O4)nc(-c3ccc(NC(=O)Nc4ccncc4)cc3)n2)cc1`
Result block: y

* * *

molecular target: mTOR (Homo sapiens, UniProt P42345); assay: mTOR enzyme assay (DELFIA, purified FLAG-TOR, His6-S6K substrate); assay type: biochemical; design: FLAG; conditions: 100 μM ATP, 2 hours
Sequence (P42345 1360-2549 limits assumed): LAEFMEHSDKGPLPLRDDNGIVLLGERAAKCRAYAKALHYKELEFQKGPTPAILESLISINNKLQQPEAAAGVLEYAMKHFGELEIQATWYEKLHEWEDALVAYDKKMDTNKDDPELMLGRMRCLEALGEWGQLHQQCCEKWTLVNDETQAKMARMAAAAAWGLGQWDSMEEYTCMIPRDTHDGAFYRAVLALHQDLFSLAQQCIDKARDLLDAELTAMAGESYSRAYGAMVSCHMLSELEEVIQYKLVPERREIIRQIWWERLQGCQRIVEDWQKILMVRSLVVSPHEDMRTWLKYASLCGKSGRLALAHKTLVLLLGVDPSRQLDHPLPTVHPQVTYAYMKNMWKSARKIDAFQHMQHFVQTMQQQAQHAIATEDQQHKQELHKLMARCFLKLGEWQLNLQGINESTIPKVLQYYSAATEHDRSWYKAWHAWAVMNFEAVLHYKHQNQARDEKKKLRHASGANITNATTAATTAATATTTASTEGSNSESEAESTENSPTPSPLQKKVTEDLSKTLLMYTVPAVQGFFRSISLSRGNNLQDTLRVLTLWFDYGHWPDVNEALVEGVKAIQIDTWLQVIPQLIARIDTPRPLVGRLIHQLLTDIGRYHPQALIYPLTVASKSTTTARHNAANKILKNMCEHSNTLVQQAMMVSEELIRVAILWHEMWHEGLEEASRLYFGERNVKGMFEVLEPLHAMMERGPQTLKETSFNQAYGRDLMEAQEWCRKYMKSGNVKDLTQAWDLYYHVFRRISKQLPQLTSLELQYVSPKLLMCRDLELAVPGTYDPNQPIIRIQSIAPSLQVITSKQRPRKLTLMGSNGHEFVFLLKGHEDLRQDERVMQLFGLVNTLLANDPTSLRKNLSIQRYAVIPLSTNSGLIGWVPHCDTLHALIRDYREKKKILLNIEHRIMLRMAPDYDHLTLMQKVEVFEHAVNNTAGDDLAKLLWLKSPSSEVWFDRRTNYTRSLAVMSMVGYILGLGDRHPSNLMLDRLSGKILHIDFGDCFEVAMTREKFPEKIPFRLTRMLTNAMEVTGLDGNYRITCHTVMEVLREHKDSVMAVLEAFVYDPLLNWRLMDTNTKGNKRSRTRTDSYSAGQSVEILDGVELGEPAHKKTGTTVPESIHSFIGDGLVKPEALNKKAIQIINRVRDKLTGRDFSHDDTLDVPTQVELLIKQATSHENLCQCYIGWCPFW
Criterion: IC50 strictly under 3 nM. Met: yes. Not met: no.

{"CHEM_SMILES": "O=C(Nc1ccncc1)Nc1ccc(-c2nc(NC3CCOCC3)cc(N3C4CCC3COC4)n2)cc1", "CLASS_LABEL": "no"}
{"CHEM_SMILES": "CC(C)N1CCN(C(=O)c2ccc(NC(=O)Nc3ccc(-c4nc(N5C6CCC5COC6)cc(N5CCOC[C@H]5C)n4)cc3)cc2)CC1", "CLASS_LABEL": "yes"}
{"CHEM_SMILES": "CN(C)CCOc1ccc(NC(=O)Nc2ccc(-c3nc(N4C5CCC4COC5)cc(N4C5CCC4COC5)n3)cc2)cc1", "CLASS_LABEL": "yes"}

Alright, here's another molecule for you.
Query block: Please check: IC50 for `C[C@@H]1COCCN1c1cc(N2C3CCC2COC3)nc(-c2ccc(NC(=O)Nc3ccc(N4CCN(C)CC4)nc3)cc2)n1` , strictly under 3 nM or not?
Result block: yes
